# Tested on: THRa:RXRa (Homo sapiens, UniProt P10827;P19793 full;full)
# Sequence (P10827 other isoform, or with tags, fused parts or gaps, chain 1 of 2): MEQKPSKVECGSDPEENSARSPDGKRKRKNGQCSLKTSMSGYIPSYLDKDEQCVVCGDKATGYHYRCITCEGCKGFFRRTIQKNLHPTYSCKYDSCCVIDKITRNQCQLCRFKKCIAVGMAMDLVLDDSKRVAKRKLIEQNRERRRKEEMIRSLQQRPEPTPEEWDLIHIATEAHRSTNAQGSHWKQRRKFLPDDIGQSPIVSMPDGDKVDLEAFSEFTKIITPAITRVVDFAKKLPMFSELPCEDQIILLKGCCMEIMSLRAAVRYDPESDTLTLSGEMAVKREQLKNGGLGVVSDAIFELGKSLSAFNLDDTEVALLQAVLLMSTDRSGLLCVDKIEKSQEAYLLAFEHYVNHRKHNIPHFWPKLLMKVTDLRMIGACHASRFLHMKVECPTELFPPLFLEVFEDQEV
# Sequence (P19793 whole entry, chain 2 of 2): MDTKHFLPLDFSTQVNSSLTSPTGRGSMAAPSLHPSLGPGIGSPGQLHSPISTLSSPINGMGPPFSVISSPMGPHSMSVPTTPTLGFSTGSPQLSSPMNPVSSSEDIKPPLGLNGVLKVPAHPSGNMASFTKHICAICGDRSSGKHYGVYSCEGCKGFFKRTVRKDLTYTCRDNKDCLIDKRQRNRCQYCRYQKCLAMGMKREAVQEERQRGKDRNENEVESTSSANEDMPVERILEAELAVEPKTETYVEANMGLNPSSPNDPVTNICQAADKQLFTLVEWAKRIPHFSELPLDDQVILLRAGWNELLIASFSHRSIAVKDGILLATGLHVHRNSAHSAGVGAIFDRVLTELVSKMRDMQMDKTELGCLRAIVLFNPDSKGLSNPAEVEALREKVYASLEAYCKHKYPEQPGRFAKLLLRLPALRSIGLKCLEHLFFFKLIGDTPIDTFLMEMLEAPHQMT
# Assay remarks: no ligand; PBM; 90 nM : 90 nM RXRa; PBS pH 7.4, 2% milk, 0.02% Triton X-100, 1 mM DTT, BSA, 0.4 mg/ml salmon testes DNA
# Settings: tags: His kept;His cleaved; copies: 1;1; label: surface-attached array probe
Readout name: binding signal

Ask: Bench note: what binding signal did NRC3_wobSeed133_DR5_T19A_o1 (dsDNA) DNA 1: GCCGTCCAAGGTCAATGCAAGGTCAGTGAAAGCATTGCGATTGACAGCGTAGAATGAAGG DNA 2: CCTTCATTCTACGCTGTCAATCGCAATGCTTTCACTGACCTTGCATTGACCTTGGACGGC show?
Reply: 5 PBM z-score against 500 random probes
